Biological target: purified αllbβ3 receptor (Homo sapiens, UniProt P05106+P08514)
Sequence (P08514 32-887 limits assumed): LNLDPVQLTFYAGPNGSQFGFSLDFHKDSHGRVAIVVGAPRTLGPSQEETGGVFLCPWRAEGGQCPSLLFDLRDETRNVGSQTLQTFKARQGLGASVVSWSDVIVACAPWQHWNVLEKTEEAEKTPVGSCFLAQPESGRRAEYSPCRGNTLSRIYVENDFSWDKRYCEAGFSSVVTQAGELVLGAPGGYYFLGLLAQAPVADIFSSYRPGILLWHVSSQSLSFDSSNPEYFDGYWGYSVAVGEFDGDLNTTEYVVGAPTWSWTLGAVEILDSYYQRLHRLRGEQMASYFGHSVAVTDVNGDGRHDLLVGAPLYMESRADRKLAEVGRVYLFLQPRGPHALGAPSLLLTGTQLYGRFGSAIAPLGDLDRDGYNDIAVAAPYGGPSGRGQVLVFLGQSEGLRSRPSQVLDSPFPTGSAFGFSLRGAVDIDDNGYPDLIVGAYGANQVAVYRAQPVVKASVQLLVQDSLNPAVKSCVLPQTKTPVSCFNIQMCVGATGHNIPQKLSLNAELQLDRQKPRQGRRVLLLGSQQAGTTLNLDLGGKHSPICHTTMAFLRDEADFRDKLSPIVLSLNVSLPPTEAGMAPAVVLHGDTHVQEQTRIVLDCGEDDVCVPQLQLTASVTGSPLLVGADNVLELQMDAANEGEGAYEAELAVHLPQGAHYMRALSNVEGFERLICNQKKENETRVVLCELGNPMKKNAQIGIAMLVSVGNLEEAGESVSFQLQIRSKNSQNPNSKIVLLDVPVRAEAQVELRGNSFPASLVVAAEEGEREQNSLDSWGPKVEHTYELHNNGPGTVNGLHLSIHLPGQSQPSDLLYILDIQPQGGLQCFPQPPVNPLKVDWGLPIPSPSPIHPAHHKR
Sequence (P08514 891-1039 partner limits assumed): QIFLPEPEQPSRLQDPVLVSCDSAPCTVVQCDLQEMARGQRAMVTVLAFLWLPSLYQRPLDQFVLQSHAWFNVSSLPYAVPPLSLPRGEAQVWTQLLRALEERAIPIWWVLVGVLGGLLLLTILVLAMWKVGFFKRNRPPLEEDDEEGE
Sequence (P05106 27-788): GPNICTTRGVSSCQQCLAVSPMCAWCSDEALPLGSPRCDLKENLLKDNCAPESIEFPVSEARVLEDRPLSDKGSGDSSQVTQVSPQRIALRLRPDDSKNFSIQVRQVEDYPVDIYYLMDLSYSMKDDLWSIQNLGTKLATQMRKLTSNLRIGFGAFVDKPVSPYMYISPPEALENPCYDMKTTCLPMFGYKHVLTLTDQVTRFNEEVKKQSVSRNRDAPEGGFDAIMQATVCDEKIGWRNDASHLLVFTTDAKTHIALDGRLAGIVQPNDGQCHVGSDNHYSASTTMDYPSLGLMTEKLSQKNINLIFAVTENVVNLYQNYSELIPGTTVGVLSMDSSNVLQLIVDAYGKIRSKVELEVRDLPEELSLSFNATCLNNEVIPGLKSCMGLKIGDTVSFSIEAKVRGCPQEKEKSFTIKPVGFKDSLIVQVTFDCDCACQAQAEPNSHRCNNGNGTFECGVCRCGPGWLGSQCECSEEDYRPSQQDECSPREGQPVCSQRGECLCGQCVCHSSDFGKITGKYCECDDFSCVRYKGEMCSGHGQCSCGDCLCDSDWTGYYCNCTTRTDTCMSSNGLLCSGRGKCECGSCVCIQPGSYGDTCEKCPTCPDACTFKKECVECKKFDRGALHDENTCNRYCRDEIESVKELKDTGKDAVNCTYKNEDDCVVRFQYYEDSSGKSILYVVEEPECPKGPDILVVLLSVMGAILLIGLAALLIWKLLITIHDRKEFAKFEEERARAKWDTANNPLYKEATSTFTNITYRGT
Assay: similar competitive binding assay with 125I-echistatin on αllbβ3 receptor, used for the specificity index
Settings: Table 16; specificity index IC50 αllbβ3/ IC50 αvβ3
Value Type: Specificity αllbβ3 / αvβ3

Check out these entries, answers already filled in.
Compound	Specificity αllbβ3 / αvβ3
CCCCOC(=O)N[C@@H](CNC(=O)c1ccc(CN(Cc2nc3ccccc3[nH]2)C(=O)N[C@@H](C)C(=O)OCC)cc1)C(=O)O [Example 5-89]	1094
CCCCOC(=O)N[C@@H](CNC(=O)c1ccc(CN(Cc2nc3ccccc3[nH]2)C(=O)NC2CCCCC2)cc1)C(=O)O [Example 5-82]	1259
O=C(O)CNC(=O)N(Cc1ccc(C(=O)NC[C@H](NC(=O)OCc2ccccc2)C(=O)O)cc1)Cc1nc2ccccc2[nH]1 [Example 5-96]	528

List the reported Specificity αllbβ3 / αvβ3 of each compound below.
1. CCCCOC(=O)N[C@@H](CNC(=O)c1ccc(CN(Cc2nc3ccccc3[nH]2)C(=O)NC(C)C)cc1)C(=O)O [Example 5-84]
2. CCCCOC(=O)N[C@@H](CNC(=O)c1ccc(CN(Cc2nc3ccccc3[nH]2)C(=O)N[C@H](C(=O)OCC)C(C)C)cc1)C(=O)O [Example 5-90]
3. CCCCOC(=O)N[C@@H](CNC(=O)c1ccc(CN(Cc2nc3ccccc3[nH]2)C(=O)NCC(=O)O)cc1)C(=O)O [Example 5-97]
4. CCCCOC(=O)N[C@@H](CNC(=O)c1ccc(CN(Cc2nc3ccccc3[nH]2)C(=O)NC(C)(C)C)cc1)C(=O)O [Example 5-85]
5. CC(C)NC(=O)N(Cc1ccc(C(=O)NC[C@H](NC(=O)OCc2ccccc2)C(=O)O)cc1)Cc1nc2cc(Cl)ccc2[nH]1 [Example 5-95]
6. CCCCOC(=O)N[C@@H](CNC(=O)c1ccc(CN(Cc2nc3ccccc3[nH]2)C(=O)Nc2ccc(F)cc2)cc1)C(=O)O [Example 5-88]
7. Cn1c(CN(Cc2ccc(C(=O)NC[C@H](NC(=O)OCc3ccccc3)C(=O)O)cc2)C(=O)NC2CCCCC2)nc2ccccc21 [Example 5-92]

Solution:
712
1697
2600
1223
775
1657
174

List the reported Specificity αllbβ3 / αvβ3 of each compound below.
1. CCCCOC(=O)N[C@@H](CNC(=O)c1ccc(CN(Cc2nc3ccccc3[nH]2)C(=O)N[C@@H](CCSC)C(=O)OCC)cc1)C(=O)O [Example 5-87]
2. CCCCOC(=O)N[C@@H](CNC(=O)c1ccc(CN(Cc2nc3ccccc3[nH]2)C(=O)NCC(=O)OCC)cc1)C(=O)O [Example 5-86]

Solution:
1. 1569
2. 793

----------
Target: purified αllbβ3 receptor (Homo sapiens, UniProt P05106+P08514)
Assay: similar competitive binding assay with 125I-echistatin on αllbβ3 receptor, used for the specificity index
Details: Table 10; specificity index IC50 αllbβ3/ IC50 αvβ3
The recorded SPECIFICITY αIIbβ3 / αvβ3 of each item maps onto one of these classes: low bracket = under 80, middle bracket = from 80 up to 300, high bracket = 300 and over

Compound	Target Of Assay	Category
O=C(N[C@@H](CNC(=O)c1ccc(CN(Cc2nc3ccccc3[nH]2)C(=O)Nc2ccc(F)cc2)cc1)C(=O)O)OCc1ccccc1	purified αllbβ3 receptor (Homo sapiens, UniProt P05106+P08514)	high bracket
CCOC(=O)CNC(=O)N(Cc1ccc(C(=O)NC[C@H](NC(=O)OCc2ccccc2)C(=O)O)cc1)Cc1nc2ccccc2[nH]1	purified αllbβ3 receptor (Homo sapiens, UniProt P05106+P08514)	high bracket
CCOC(=O)[C@H](Cc1ccccc1)NC(=O)N(Cc1ccc(C(=O)NC[C@H](NC(=O)OCc2ccccc2)C(=O)O)cc1)Cc1nc2ccccc2[nH]1	purified αllbβ3 receptor (Homo sapiens, UniProt P05106+P08514)	high bracket

Exercise: Kindly identify the class of CCOC(=O)[C@H](CCSC)NC(=O)N(Cc1ccc(C(=O)NC[C@H](NC(=O)OCc2ccccc2)C(=O)O)cc1)Cc1nc2ccccc2[nH]1 .
Solution: high bracket

Exercise: Kindly identify the class of CSCC(=O)N(Cc1ccc(C(=O)NC[C@H](NC(=O)OCc2ccccc2)C(=O)O)cc1)Cc1nc2ccccc2[nH]1 .
Solution: low bracket

Exercise: Kindly identify the class of CCOCC(=O)N(Cc1ccc(C(=O)NC[C@H](NC(=O)OCc2ccccc2)C(=O)O)cc1)Cc1nc2ccccc2[nH]1 .
Solution: middle bracket

Exercise: Kindly identify the class of O=C(N[C@@H](CNC(=O)c1ccc(CN(Cc2nc3ccccc3[nH]2)C(=O)NC23CC4CC(CC(C4)C2)C3)cc1)C(=O)O)OCc1ccccc1 .
Solution: middle bracket

Exercise: Kindly identify the class of CCOC(=O)CCNC(=O)N(Cc1ccc(C(=O)NC[C@H](NC(=O)OCc2ccccc2)C(=O)O)cc1)Cc1nc2ccccc2[nH]1 .
Solution: high bracket

Exercise: Kindly identify the class of O=C(N[C@@H](CNC(=O)c1ccc(CN(Cc2nc3ccccc3[nH]2)C(=O)NCc2ccccc2)cc1)C(=O)O)OCc1ccccc1 .
Solution: middle bracket

Exercise: Kindly identify the class of CCOC(=O)[C@@H](NC(=O)N(Cc1ccc(C(=O)NC[C@H](NC(=O)OCc2ccccc2)C(=O)O)cc1)Cc1nc2ccccc2[nH]1)C(C)C .
Solution: high bracket

Exercise: Kindly identify the class of CC(C)(C)NC(=O)N(Cc1ccc(C(=O)NC[C@H](NC(=O)OCc2ccccc2)C(=O)O)cc1)Cc1nc2ccccc2[nH]1 .
Solution: high bracket

Exercise: Kindly identify the class of O=C(N[C@@H](CNC(=O)c1ccc(CN(Cc2nc3ccccc3[nH]2)C(=O)Nc2cccc3ccccc23)cc1)C(=O)O)OCc1ccccc1 .
Solution: middle bracket

Exercise: Kindly identify the class of O=C(N[C@@H](CNC(=O)c1ccc(CN(Cc2nc3ccccc3[nH]2)C(=O)C2CC2c2ccccc2)cc1)C(=O)O)OCc1ccccc1 (some centres unmarked) .
Solution: low bracket

Exercise: Kindly identify the class of O=C(N[C@@H](CNC(=O)c1ccc(CN(Cc2nc3ccccc3[nH]2)C(=O)COc2ccccc2)cc1)C(=O)O)OCc1ccccc1 .
Solution: low bracket

Exercise: Kindly identify the class of O=C(N[C@@H](CNC(=O)c1ccc(CN(Cc2nc3ccccc3[nH]2)C(=O)NS(=O)(=O)c2ccc(Cl)cc2)cc1)C(=O)O)OCc1ccccc1 .
Solution: low bracket

Exercise: Kindly identify the class of CCOc1ccc(NC(=O)N(Cc2ccc(C(=O)NC[C@H](NC(=O)OCc3ccccc3)C(=O)O)cc2)Cc2nc3ccccc3[nH]2)cc1 .
Solution: middle bracket

Exercise: Kindly identify the class of O=C(N[C@@H](CNC(=O)c1ccc(CN(Cc2nc3ccccc3[nH]2)C(=O)Nc2ccc(Cl)cc2)cc1)C(=O)O)OCc1ccccc1 .
Solution: middle bracket
